Values compiled from the supplement of paper PMC4466140.

Listing: SPOT peptide array binding signal intensity of selected binders
# ASSAYED_TARGET: AgHof1
# EXPERIMENTAL_DETAILS: SPOT peptide array binding signal intensity (averaged, normalized) (arbitrary units (background-subtracted, floor 0; scale differs between SH3 domains)); higher = stronger binding of the SH3 domain to the peptide
Could you keep your reply to the number by itself?

Q) Consider the binder ERPKRRAPPPVPKKP and give its measured SPOT peptide array binding signal intensity.
A) 124

Q) Consider the binder PPPPPPPPPPLPQSL and give its measured SPOT peptide array binding signal intensity.
A) 366

Q) Consider the binder FTLPPPPPPPGLDEL and give its measured SPOT peptide array binding signal intensity.
A) 85.8
